Biological target: monoamine oxidase (MAO)
Assay: MAO inhibition in vitro (brain)
Conditions: rat brain homogenate, 14C-5-HT or 14C-PEA as substrate (which one not given), pH 7.4, 37° C., 30 min pre-incubation, 10 min incubation
property name: IC50 (nM)

Example results:
COCC1CN(c2ccc([C@H]3CC[C@H](O)CC3)cc2)C(=O)O1 (mixture of isomers) ... 8.4
COCC1CN(c2ccc([C@H]3CC[C@H](OCCC#N)CC3)cc2)C(=O)O1 (mixture of isomers) ... 5
COC[C@H]1CN(c2ccc(C3CCC(=O)CC3)cc2)C(=O)O1 ... 1
O=C1OC(CO)CN1c1ccc(C2CCCCC2)cc1 (racemic) ... 8.5
COC[C@H]1CN(c2ccc(C3CCCCC3)cc2)C(=O)O1 ... 0.1
COCC1CN(c2ccc(C3CCC(CO)CC3)cc2)C(=O)O1 (racemic) ... 3

1: COCC1CN(c2ccc(C3CCC(C)(O)CC3)cc2)C(=O)O1 (stereo not drawn)
2: COCC1CN(c2ccc([C@H]3CC[C@H](CC#N)CC3)cc2)C(=O)O1 (mixture of isomers)
3: COCC1CN(c2ccc([C@H]3CC[C@H](OC(C)=O)CC3)cc2)C(=O)O1 (mixture of isomers)
List from greatest to least IC50. Ranked list of labels, please, in the requested order. 3, 1, 2
